# Test system: A549
# method: Cytotoxicity against human A549 cells after 48 hrs by MTT assay
# Format: functional, cell-based
# protocol-conditions: A549, 48 h
Catalogue of IC50 readings, one per entry.

[
  {
    "structure-smiles": "CC(C)=CCC[C@](C)(O)[C@H]1CC[C@]2(C)[C@@H]1[C@H](O)C[C@@H]1[C@@]3(C)C[C@@H](O)[C@H](O)C(C)(C)[C@@H]3CC[C@]12C",
    "study-target": "A549",
    "IC50 [µg/mL]": 12.5
  },
  {
    "structure-smiles": "CC(C)=CCC[C@](C)(O[C@@H]1O[C@H](CO)[C@@H](O)[C@H](O)[C@H]1O)[C@H]1CC[C@]2(C)[C@@H]1[C@H](O)C[C@@H]1[C@@]3(C)C[C@@H](O)[C@H](O[C@@H]4O[C@H](CO)[C@@H](O)[C@H](O)[C@H]4O[C@@H]4O[C@H](CO)[C@@H](O)[C@H](O)[C@H]4O)C(C)(C)[C@@H]3CC[C@]12C",
    "study-target": "A549",
    "IC50 [µg/mL]": 52.6
  }
]
